# Assay Target: UniProt P08183
# Sequence (P08183 whole entry): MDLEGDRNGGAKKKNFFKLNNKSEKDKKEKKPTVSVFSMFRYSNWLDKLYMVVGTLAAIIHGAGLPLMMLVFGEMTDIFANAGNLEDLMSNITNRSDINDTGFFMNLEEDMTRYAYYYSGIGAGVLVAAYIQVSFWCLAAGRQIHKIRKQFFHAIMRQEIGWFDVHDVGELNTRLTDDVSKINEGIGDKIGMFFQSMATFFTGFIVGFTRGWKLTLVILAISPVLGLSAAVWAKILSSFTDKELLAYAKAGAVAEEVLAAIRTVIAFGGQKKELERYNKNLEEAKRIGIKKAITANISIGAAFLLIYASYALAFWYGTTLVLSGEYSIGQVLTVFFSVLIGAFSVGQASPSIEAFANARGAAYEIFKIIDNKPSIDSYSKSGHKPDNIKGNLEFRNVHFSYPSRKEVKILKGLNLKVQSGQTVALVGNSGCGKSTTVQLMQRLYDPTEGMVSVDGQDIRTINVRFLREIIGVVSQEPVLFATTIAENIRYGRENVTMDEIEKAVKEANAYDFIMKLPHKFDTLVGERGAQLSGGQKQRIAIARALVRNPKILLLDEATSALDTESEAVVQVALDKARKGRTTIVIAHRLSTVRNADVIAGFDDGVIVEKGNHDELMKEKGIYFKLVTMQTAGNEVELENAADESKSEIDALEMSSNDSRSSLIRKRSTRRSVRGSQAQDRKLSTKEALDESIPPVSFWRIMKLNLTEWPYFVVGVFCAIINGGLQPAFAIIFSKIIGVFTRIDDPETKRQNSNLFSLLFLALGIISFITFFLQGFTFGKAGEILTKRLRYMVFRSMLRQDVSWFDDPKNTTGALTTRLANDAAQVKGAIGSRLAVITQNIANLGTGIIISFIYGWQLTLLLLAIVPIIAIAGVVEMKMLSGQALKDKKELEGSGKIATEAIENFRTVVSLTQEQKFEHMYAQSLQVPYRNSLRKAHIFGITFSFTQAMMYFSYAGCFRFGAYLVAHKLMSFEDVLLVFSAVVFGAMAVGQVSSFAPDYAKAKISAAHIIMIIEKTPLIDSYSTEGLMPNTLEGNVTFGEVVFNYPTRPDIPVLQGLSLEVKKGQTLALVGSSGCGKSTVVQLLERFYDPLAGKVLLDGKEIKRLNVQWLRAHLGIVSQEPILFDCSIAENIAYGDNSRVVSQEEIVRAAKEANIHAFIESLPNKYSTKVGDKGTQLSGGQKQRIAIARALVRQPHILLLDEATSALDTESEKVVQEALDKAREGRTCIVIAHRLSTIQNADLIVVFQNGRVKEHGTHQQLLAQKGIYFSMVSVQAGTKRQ
# Protocol Description: Inhibition of P-gp-mediated multidrug resistance in doxorubicin-resistant human MCF7/ADR cells assessed as fold reversal of resistance by measuring doxorubicin IC50 incubated for 48 hrs by CCK-8 assay relative to doxorubicin IC50 in absence of compound; note: test concentration or dose not given here
# Format: cell-based
# Run Parameters: nci-adr-res
Property Name: fold change (FC)

P: COc1ccc(Cn2c(C(=O)N3CCc4cc(OC)c(OC)cc4C3)cc3cc(-c4ccc(NC(=O)c5ccc(Cl)cc5)cc4)ccc32)cc1
Q: COc1cc2c(cc1OC)CN(C(=O)c1cc3cc(-c4ccccc4)ccc3[nH]1)CC2
R: COc1cc2c(cc1OC)CN(C(=O)c1cc3cc(-c4ccc(NC(=O)c5ccc(Cl)cc5)cc4)ccc3[nH]1)CC2
# desc sort on fold change (FC) across 3 compounds Please express your ranking as an ordered list of the labels. R, P, Q

P: COc1cc2c(cc1OC)CN(C(=O)c1cc3cc(-c4cccc(F)c4)ccc3[nH]1)CC2
Q: COc1cc2c(cc1OC)CN(C(=O)c1cc3cc(-c4ccc(NC(=O)c5ccc(Cl)cc5)cc4)ccc3n1Cc1ccc(C)cc1)CC2
R: COc1cc2c(cc1OC)CN(C(=O)c1cc3cc(-c4ccc(NC(=O)c5ccc(Br)cc5)cc4)ccc3[nH]1)CC2
Order each entry by recorded fold change (FC), climbing from the minimum. Respond with an ordered listing of the labels, as requested. P, Q, R
(P: 19.9, Q: 36.6, R: 201.7)
